# Target Desc: human FGFR1c + KLB receptor complex on HEK293 iLite FGF21 reporter cells (human, UniProt P11362 22-822; Q86Z14 1-1044)
# Sequence (P11362 22-822, chain 1 of 2): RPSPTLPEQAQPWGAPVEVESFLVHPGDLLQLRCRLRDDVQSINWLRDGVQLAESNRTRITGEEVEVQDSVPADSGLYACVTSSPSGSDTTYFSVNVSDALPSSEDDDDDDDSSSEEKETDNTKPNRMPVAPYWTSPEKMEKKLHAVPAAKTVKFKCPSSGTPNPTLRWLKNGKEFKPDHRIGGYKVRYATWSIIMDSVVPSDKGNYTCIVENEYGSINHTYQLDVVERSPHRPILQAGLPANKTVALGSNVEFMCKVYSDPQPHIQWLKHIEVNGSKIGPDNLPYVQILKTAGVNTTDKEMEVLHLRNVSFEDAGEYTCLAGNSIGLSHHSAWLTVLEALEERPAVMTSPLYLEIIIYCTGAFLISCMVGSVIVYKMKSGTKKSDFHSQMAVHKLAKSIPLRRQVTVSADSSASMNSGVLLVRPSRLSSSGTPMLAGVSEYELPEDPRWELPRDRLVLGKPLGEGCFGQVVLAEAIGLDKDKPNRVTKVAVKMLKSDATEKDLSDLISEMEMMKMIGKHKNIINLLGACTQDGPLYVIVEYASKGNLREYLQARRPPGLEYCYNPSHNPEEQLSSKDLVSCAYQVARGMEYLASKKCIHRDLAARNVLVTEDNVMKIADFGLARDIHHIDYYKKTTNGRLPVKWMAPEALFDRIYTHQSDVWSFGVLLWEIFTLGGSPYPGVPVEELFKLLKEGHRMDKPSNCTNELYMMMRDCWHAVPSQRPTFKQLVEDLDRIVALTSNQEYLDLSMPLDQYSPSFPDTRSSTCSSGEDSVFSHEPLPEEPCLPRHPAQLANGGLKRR
# Sequence (Q86Z14 whole entry, chain 2 of 2): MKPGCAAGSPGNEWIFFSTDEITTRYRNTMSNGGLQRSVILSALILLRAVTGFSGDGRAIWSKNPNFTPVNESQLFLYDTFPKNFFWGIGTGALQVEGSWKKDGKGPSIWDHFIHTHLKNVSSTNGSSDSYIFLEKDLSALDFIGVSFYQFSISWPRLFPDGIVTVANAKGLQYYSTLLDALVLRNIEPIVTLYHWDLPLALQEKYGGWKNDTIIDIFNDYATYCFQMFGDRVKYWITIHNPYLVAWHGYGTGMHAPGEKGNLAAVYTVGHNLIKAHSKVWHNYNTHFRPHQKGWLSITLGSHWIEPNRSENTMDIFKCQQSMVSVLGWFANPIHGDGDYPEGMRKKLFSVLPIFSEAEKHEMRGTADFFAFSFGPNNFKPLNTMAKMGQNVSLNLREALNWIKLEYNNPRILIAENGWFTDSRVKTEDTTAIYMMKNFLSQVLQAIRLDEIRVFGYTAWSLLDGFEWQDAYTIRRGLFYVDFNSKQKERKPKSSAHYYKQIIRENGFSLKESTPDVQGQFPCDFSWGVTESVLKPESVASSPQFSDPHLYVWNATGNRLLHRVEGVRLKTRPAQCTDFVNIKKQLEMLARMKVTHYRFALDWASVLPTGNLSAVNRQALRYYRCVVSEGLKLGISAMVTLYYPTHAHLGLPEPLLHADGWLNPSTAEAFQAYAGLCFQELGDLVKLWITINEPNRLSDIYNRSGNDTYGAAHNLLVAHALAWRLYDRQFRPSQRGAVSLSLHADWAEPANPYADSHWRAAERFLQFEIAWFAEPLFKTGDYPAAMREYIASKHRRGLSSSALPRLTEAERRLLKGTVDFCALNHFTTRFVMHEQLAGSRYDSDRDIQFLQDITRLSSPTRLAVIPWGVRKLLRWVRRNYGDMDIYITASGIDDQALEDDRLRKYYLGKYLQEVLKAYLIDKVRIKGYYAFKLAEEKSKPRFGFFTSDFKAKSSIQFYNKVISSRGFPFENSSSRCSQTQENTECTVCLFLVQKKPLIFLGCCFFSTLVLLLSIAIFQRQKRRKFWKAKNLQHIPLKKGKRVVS
# Assay Name: cell-based or functional assay
Observable: EC50 (pM)
Hi! Could you send only the number? It should be in pM, unit omitted.

// EC50 lookup, binder = Ab0296 (antibody, IgG4, V domains shown, IgG4 PE) VH: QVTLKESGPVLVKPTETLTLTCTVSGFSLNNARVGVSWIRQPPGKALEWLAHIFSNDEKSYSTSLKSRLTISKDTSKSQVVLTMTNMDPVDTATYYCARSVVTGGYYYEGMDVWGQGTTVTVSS VL: SYVLTQPPSVSVAPGQTARITCGGSNIGSESVHWYQQKPGQAPVLVVYDESDRPSGIPERFSGSNSGNTATLTISRVEAGDEADYYCQVWDGNSDHVVFGGGTKLTVLG , result: 60
